- SYSTEM: human orexin 1 receptor (hOx1R) (Homo sapiens, UniProt O43613)
- Construct: expressed in transfected cells
- Sequence (O43613 whole entry): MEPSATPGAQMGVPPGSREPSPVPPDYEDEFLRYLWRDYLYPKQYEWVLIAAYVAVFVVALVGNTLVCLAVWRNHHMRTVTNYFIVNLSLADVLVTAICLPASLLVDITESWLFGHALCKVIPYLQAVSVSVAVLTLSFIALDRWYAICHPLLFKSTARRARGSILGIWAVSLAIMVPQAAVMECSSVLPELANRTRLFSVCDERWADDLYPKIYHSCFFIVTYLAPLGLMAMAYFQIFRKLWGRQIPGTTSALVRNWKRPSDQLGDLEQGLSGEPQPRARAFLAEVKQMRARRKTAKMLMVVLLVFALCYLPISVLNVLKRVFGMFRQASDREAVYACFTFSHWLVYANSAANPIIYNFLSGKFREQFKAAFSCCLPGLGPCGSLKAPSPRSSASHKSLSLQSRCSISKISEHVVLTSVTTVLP
- PROTOCOL TEXT: Calcium accumulation in cells (FLIPR), antagonism of orexin A, hOx1R
- Type: cell-based
- SETTINGS: cells expressing human orexin 1 receptor; IC50 vs orexin A converted by Cheng and Prusoff correction
pKd listing for selected molecules.
pKd here: minus log base 10 of the concentration, concentration in moles per litre.

Solved entries (count: 8):
Task item: Give the measured pKd of CN(C(=O)c1cccc2ccccc12)[C@H](CCNC(=O)c1ccccn1)Cc1ccccc1 [Example 6] .
Reply: 7.51

Task item: What pKd value was documented for this molecule, CN(C(=O)c1cccc(OC(F)(F)F)c1)[C@H](CCNC(=O)c1cccn1C)Cc1ccccc1 [Example 123] ?
Reply: 6.06

Task item: Give its pKd value. Item: CN(C(=O)c1cc(C(F)(F)F)cc(C(F)(F)F)c1)[C@@H](CCNC(=O)c1ccccn1)Cc1ccccc1 [Example 74]
Reply: 5.49

Task item: Which pKd value belongs to CN(C(=O)c1ccc2ccn(C)c2c1)[C@H](CCNC(=O)c1ccccn1)Cc1ccccc1 [Example 85] ?
Reply: 6.63

Task item: Name the reported pKd value associated with the molecule CCCN(C(=O)c1ccc2c(c1)OCO2)[C@H](CCNC(=O)c1ccccn1)Cc1ccccc1 [Example 13]
Reply: 5.66

Task item: For the molecule CN(C(=O)c1cc(F)cc(F)c1)[C@H](CCNC(=O)c1ccccn1)Cc1ccccc1 [Example 34] , what pKd is on record?
Reply: 6.14

Task item: Param item = CCCN(C(=O)c1cccc2c1OCO2)[C@H](CCNC(=O)c1ccccn1)Cc1ccccc1 [Example 59] ; retrieve measured pKd.
Reply: 5.69

Task item: Item CN(C(=O)c1ccccc1)[C@@H](Cc1ccccc1)[C@H](O)CNC(=O)c1ccccn1 [Example 69] has what recorded pKd?
Reply: 5.45

---
Task item: Endpoint output: pKd of Cc1cc(C)cc(C(=O)N(C)[C@H](CCNC(=O)c2ccccn2)Cc2ccccc2)c1 [Example 97] . Value?
Reply: 6.73

Task item: What value of measured pKd is listed for CN(C(=O)c1ccc2c(c1)OCO2)[C@H](CCNC(=O)c1cccn1C)Cc1ccccc1 [Example 76] ?
Reply: 6.42

Task item: What measured pKd goes with CN(C(=O)c1ccc2ccccc2c1)[C@H](CCNC(=O)c1nc2ccccc2n1C)Cc1ccc(F)cc1 [Example 57] ?
Reply: 7.92

Task item: Which pKd value is on record for CN(C(=O)c1ccc2[nH]ccc2c1)[C@H](CCNC(=O)c1nc2ccccc2n1C)Cc1ccccc1 [Example 81] ?
Reply: 7.92

Task item: Query: pKd; subject: CN(C(=O)c1ccccc1Br)[C@H](CCNC(=O)c1ccccn1)Cc1ccccc1 [Example 100]
Reply: 5.97

Task item: Suppose we examine the molecule CN(C(=O)c1ccc2c(c1)CCN2)[C@H](CCNC(=O)c1ccccn1)Cc1ccccc1 [Example 23] ; what pKd value has been reported?
Reply: 6.82

----------
- SYSTEM: human orexin 2 receptor (hOx2R) (Homo sapiens)
- Construct: expressed in transfected cells
- Sequence (O43614 whole entry): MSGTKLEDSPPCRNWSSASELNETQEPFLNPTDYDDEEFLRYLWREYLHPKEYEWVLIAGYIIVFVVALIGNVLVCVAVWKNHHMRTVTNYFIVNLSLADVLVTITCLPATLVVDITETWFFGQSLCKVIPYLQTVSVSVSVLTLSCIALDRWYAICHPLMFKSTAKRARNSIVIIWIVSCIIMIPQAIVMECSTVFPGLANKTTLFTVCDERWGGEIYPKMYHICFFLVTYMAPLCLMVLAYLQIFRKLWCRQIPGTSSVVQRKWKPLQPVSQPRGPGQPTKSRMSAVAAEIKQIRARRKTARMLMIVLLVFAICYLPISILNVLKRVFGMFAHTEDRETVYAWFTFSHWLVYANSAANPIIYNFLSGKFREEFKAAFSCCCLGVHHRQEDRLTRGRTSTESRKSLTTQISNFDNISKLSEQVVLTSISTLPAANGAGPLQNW
- PROTOCOL TEXT: Calcium accumulation in cells (FLIPR), antagonism of orexin A, hOx2R
- Format: cell-based
- SETTINGS: cells expressing human orexin 2 receptor; IC50 vs orexin A converted by Cheng and Prusoff correction
ENDPOINT NAME: pKd
pKd (log units): -log10 of the concentration in mol/L.

Task item: Give the measured pKd of CN(C(=O)c1ccc2c(c1)OC(F)(F)O2)[C@H](CCNC(=O)c1cccn1C)Cc1ccccc1 .
Reply: 7.27

Task item: Looking for the measured pKd of CN(C(=O)c1ccc2c(c1)OCO2)[C@H](CCNC(=O)c1nc2ccccc2n1C)Cc1ccccc1 , can you help?
Reply: 7.37

Task item: Quick one: pKd of CN(C(=O)c1ccc2c(c1)OCO2)[C@H](CCNC(=O)c1cccn1C)Cc1ccccc1 ?
Reply: 9.00

Task item: Look up pKd for this compound: CN(C(=O)c1cccc2ccccc12)[C@H](CCNC(=O)c1ccccn1)Cc1ccccc1
Reply: 7.24
